study target: panel of 60 human kinases (Homo sapiens)
Construct: purchased Reaction Biology Corp
assay remarks: Radiolabeled ATP kinase assay, panel of 60 kinases (Table S5)
Type: biochemical
details: PKCnu/PRKD3; 0.1 μM; 10 μM ATP; read-out: % Enzyme Activity (relative to DSMO controls)
endpoint name: remaining activity at 0.1 µM (%)

- CN1CCN(Cc2ccc(-c3cnc4[nH]cc(-c5cccc(Cl)c5)c4c3)cc2)CC1: 17.5
- CN1CCN(Cc2ccc(-c3cnc4[nH]cc(-c5ccccc5Cl)c4c3)cc2)CC1: 18.8
- CN1CCN(Cc2ccc(-c3cnc4[nH]cc(-c5ccoc5)c4c3)cc2)CC1: 32.8
- CN1CCN(Cc2ccc(-c3cnc4[nH]cc(-c5cnn(Cc6ccccc6)c5)c4c3)cc2)CC1: 7.09
- COc1ccccc1-c1c[nH]c2ncc(-c3ccc(CN4CCN(C)CC4)cc3)cc12: 50.2

----------
Attribute: remaining activity at 0.1 µM
study target: panel of 60 human kinases (Homo sapiens)
Construct: purchased Reaction Biology Corp
assay remarks: Radiolabeled ATP kinase assay, panel of 60 kinases (Table S5)
Assay type: biochemical
details: ERK5/MAPK7; 0.1 μM; 10 μM ATP; read-out: % Enzyme Activity (relative to DSMO controls)
endpoint name: remaining activity at 0.1 µM

• CN1CCN(Cc2ccc(-c3cnc4[nH]cc(-c5ccc6[nH]ccc6c5)c4c3)cc2)CC1 [Compound 1, reference compound] = 109%
• COc1ccccc1-c1c[nH]c2ncc(-c3ccc(CN4CCN(C)CC4)cc3)cc12 [Compound 7at] = 108%
• CN1CCN(Cc2ccc(-c3cnc4[nH]cc(-c5cccc(Cl)c5)c4c3)cc2)CC1 [Compound 7ad] = 109%
• CN1CCN(Cc2ccc(-c3cnc4[nH]cc(-c5ccoc5)c4c3)cc2)CC1 [Compound 7w] = 108%
• CN1CCN(Cc2ccc(-c3cnc4[nH]cc(-c5ccncc5)c4c3)cc2)CC1 [Compound 7n] = 90.6%
• Cc1nn(C)c(C)c1-c1c[nH]c2ncc(-c3ccc(CN4CCN(C)CC4)cc3)cc12 [Compound 7ai] = 101%
• CN1CCN(Cc2ccc(-c3cnc4[nH]cc(-c5ccccc5Cl)c4c3)cc2)CC1 [Compound 7as] = 107%
• CN1CCN(Cc2ccc(-c3cnc4[nH]cc(-c5ccc6c(c5)OCCO6)c4c3)cc2)CC1 [Compound 7d] = 96.8%
• CN1CCN(Cc2ccc(-c3cnc4[nH]cc(-c5cnn(Cc6ccccc6)c5)c4c3)cc2)CC1 [Compound 7ah] = 105%

----------
study target: panel of 60 human kinases (Homo sapiens, UniProt Q00537)
Construct: purchased Reaction Biology Corp
Sequence (Q00537 whole entry): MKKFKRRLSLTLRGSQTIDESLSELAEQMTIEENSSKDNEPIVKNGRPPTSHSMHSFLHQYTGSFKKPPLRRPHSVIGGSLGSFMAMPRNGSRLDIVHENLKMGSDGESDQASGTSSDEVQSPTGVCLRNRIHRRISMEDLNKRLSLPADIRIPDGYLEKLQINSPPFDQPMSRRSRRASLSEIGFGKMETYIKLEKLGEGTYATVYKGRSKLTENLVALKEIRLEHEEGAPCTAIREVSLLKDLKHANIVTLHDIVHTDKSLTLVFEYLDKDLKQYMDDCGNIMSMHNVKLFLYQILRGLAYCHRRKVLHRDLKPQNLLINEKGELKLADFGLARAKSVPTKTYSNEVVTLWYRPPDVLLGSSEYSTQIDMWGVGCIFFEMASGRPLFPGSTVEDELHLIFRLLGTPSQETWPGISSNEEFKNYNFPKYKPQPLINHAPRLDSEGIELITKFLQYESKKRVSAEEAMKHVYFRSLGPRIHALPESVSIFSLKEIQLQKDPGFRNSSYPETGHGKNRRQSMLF
assay remarks: Radiolabeled ATP kinase assay, panel of 60 kinases (Table S5)
Type: biochemical
details: CDK17/cyclin Y (PCTK2); 0.1 μM; 10 μM ATP; read-out: % Enzyme Activity (relative to DSMO controls)
A collection of molecules and their measured remaining activity at 0.1 µM
endpoint name: remaining activity at 0.1 µM (%)

* CN1CCN(Cc2ccc(-c3cnc4[nH]cc(-c5ccccc5Cl)c4c3)cc2)CC1 | 44.1
* CN1CCN(Cc2ccc(-c3cnc4[nH]cc(-c5ccoc5)c4c3)cc2)CC1 | 61.4
* CN1CCN(Cc2ccc(-c3cnc4[nH]cc(-c5cccc(Cl)c5)c4c3)cc2)CC1 | 70.4
* CN1CCN(Cc2ccc(-c3cnc4[nH]cc(-c5ccc6[nH]ccc6c5)c4c3)cc2)CC1 [Compound 1, reference compound] | 66.1
* CN1CCN(Cc2ccc(-c3cnc4[nH]cc(-c5ccc6c(c5)OCCO6)c4c3)cc2)CC1 | 41.1
* COc1ccccc1-c1c[nH]c2ncc(-c3ccc(CN4CCN(C)CC4)cc3)cc12 | 69.7
* CN1CCN(Cc2ccc(-c3cnc4[nH]cc(-c5cnn(Cc6ccccc6)c5)c4c3)cc2)CC1 | 7.55
* Cc1nn(C)c(C)c1-c1c[nH]c2ncc(-c3ccc(CN4CCN(C)CC4)cc3)cc12 | 69.4
* CN1CCN(Cc2ccc(-c3cnc4[nH]cc(-c5ccncc5)c4c3)cc2)CC1 | 10.7
